biological target: histamine H3 receptor (Homo sapiens, UniProt Q9Y5N1); construct: expressed in transfected cells; host or cells: CHO K1 cells (pSwitch/pGene GeneSwitch system, mifepristone-induced), clone 3H3; membranes; assay: Histamine H3 functional antagonist assay ([35S]-GTPγS SPA on membranes of H3 cells); format: biochemical; settings: membrane prepared from cultured H3 cells (CHO K1, human H3); histamine at EC80; averages of a number of experiments; read-out: functional pKi (fpKi), H3 functional antagonist assay (converted)
Sequence (Q9Y5N1 whole entry): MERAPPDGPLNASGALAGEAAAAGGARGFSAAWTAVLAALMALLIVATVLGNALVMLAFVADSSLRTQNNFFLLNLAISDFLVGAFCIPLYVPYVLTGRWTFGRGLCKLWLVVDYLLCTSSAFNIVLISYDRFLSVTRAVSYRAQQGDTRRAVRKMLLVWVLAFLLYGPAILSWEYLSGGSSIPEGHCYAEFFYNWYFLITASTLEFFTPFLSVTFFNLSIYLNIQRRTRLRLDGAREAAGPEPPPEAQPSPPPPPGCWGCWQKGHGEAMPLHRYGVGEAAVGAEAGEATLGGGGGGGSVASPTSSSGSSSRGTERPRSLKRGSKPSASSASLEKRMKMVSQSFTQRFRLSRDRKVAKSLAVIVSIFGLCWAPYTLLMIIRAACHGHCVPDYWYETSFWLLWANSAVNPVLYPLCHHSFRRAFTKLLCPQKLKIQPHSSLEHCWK
Property Name: Ki

Take a look at these entries with their results.
CC(C)NC(=O)c1ccc(Cc2ccc3c(c2)CCN(C2CCC2)CC3)cn1 [Example E53]
< 3.16 nM
O=C(c1ccc(Cc2ccc3c(c2)CCN(C2CCC2)CC3)cc1)N1CCOCC1 [Example E19]
< 3.16 nM

// each compound listed below needs its Ki
1. O=C(NC1CCOCC1)c1ccc(Cc2ccc3c(c2)CCN(C2CCC2)CC3)cc1 [Example E50]
2. CNC(=O)c1ccc(Cc2ccc3c(c2)CCN(C2CCC2)CC3)nc1 [Example E42]
3. O=C(c1cnc(Cc2ccc3c(c2)CCN(C2CCC2)CC3)cn1)N1CCCC1 [Example E20]

1. < 3.16 nM
2. < 3.16 nM
3. < 3.16 nM
